Source of measurements: patent US7247633B2

Where a name gives a salt, the structure may show the parent alone.
In this section, each of the compounds is paired with its reported melting point.
measurement type: melting point

* FC(F)(F)c1ccc(COc2cncc(N3CCNCC3)n2)cc1 (as salt: acetate) | 84 to 85 °C
* Clc1cccc(CCOc2cncc(N3CCNCC3)n2)c1 (as salt: acetate) | 118 to 119 °C
* c1ccc(-c2ccc(COc3cncc(N4CCNCC4)n3)cc2)cc1 (as salt: acetate) | 102 to 104 °C
* c1cc2c(cc1COc1cncc(N3CCNCC3)n1)OCO2 (as salt: acetate) | 124 to 127 °C
* c1ccc2c(CCOc3cncc(N4CCNCC4)n3)c[nH]c2c1 | 133 to 135 °C
* c1ccc(CCOc2cncc(N3CCNCC3)n2)cc1 (as salt: maleate) | 166 to 168 °C
* COc1cccc(COc2cncc(N3CCNCC3)n2)c1 (as salt: acetate) | 111 to 113 °C
